The origin of these recorded values is patent US20230303681A1.

We begin with a simple list: items and their reported MFI.
subject of test: T1, human TMEM106B (human, UniProt Q9NUM4 2-274)
T1 construct: Full-length, on transiently transfected HEK293 cells, or natively expressed on HeLa, U251 and A549 cells; also called huTMEM106B; huTMEM
experimental protocol: FACS A549, 10 ug/ml

Some entries whose results are on file:
>>> value_observed("anti-TMEM106B antibody TM-22 (antibody, V domains shown) VH: QVQLQQSGPELVKPGASVKISCKASGYRFTSYYIHWVKQRPGQGLEWIGWIYPGNGITNYNEKFKGKATLTADTSSSTAYMQLSSLTSEDSAVYYCASPYYGIRNCYFDVWGTGTTVTVSS VL: DVLMTQTPLSLPVSLGDHASISCRSGQSIVHSNGNTYLEWYLQKPGQSPKLLIYKVSNRFSGVPDRFSGSGSGTDFTLKISRVEAEDLGIYYCFQGSHVPWTFGGGTKLEIK")
478
>>> value_observed("anti-TMEM106B antibody TM-5 (antibody, V domains shown) VH: QVQLQQSGTELARPGASVKVSCKASGYIFTTYGITWVKQRGGQGLEWIGEIYPRSDNTYYNEKFKDKATLTADKSSSTAYMELRSLTSEDSAVYFCARSKGSGTGDYWGQGTTVTVSS VL: DIQMTQSPASLSASVGETVTITCRASENIYIYLAWYQQKQGKTPQLLVYNGKMLAENVPSRFSGSGSGTQFSLKINSLQPEDFGSYYCQHHYGSPPAFGAGTKLELK")
4800
>>> value_observed("anti-TMEM106B antibody TM-19 (antibody, V domains shown) VH: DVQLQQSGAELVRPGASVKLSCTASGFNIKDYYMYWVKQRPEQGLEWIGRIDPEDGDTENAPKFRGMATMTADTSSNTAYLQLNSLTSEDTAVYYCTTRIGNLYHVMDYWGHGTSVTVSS VL: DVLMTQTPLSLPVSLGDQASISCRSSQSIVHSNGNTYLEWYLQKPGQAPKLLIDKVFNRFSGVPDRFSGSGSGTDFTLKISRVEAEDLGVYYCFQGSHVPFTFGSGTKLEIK")
4960
>>> value_observed("anti-TMEM106B antibody TM-42 (antibody, V domains shown) VH: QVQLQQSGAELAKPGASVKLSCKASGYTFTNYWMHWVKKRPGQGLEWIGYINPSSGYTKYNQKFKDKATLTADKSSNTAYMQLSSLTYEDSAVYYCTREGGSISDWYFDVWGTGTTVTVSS VL: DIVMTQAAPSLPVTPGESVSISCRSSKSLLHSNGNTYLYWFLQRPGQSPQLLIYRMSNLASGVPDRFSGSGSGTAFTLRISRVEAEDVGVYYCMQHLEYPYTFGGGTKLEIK")
3300

Continue with the next binder.
Which value of MFI has been reported for anti-TMEM106B antibody TM-3 (antibody, V domains shown) VH: QVTLKESGPGIVQPSQTLSLTCSFSGFSLNTLGRGVGWIRQPSGKGLEWLAKIWWNDDKFYYPALKSRLTISKDTSKNQIFLKIANVDTADSATYYCARIAGGTGAAYWGQGTTLTVSS VL: DIVMTQAAFSNPVTLGTSASISCRSSKSLLHSNGITYLYWYLQKPGQSPQLLISQMSSLASGVPDRFSSGGSGTDFTLRISRVEAEDVGVFYCAQNLELPWTFGGGTKLELK in the records?
7670
